Data origin: patent US20230203153A1

biological target: T1, cyclic (biotinylated) ABCB5 peptide (human, disulfide 1-18); assay: cyclic biotinylated peptide ELISA (200 nM peptides), curve fit, OD 450 nm
T1 construct: immobilised at 200 nM on streptavidin-precoated plates; also called cyclic ABCB5 peptide
T1 peptide: Biotin-CRFGAYLIQAGRMTPEGC
Bridge positions count the residues as written; N and C are the ends. Ends that are not written are not given here. * marks the point of attachment. Biotin = O=C1N[C@H]2[C@H](CS[C@H]2CCCCC(=O)*)N1
# Lookup of reported Bmax keyed by entry
Write no unit; give the number alone.

Provide Bmax value for the following binder: ABCB5-Ab42 (antibody, V domains shown, detection was with an anti-human secondary antibody) VH: QVQLVQSGAEVKKPGASVKVSCKTSGYTFTSYYMHWVRQSPGQGLEWMGIINPSGGSTSYAQKFQGRVTMTRDTSTSTVYMELSSLRSEDTAVYYCARDQAVTGTAYYYYYGMDVWGQGTTVTVSS VL: EIVLTQSPGTLSLSPGERATLSCRASLSVNSNYLAWYQQKPGQAPRLLIYGTSSRATGIPDSFSGSGSGTDFTLTISRLEPEDFAVYYCQQFGSSPLTFGGGTKVEIK
3.17

Provide Bmax value for the following binder: ABCB5-Ab44 (antibody, V domains shown, also called A44; F01) VH: QVQLVQSGAEVKKPGASVKVSCKASGYTFTSYYMHWVRQAPGQGLEWMGIINPSGGSTSYAQKFKGRVTMTRDTSTSTVYMELSSLRSEDTAVYYCARDQAVTGTAYYYYYGMDVWGQGTTVTVSS VL: EIVLTQSPGTLSLSPGERATLSCRASQSVNSNYLAWYQQKPGQAPRLLIYGTSSRATGIPDSFSGSGSGTDFTLTISRLEPEDFAVYYCQQFGSSPLTFGGGTKVEIK
3.23

Provide Bmax value for the following binder: ABCB5-Ab43 (antibody, V domains shown) VH: QVQLVQSGAEVKKPGASVKVSCKASGYTFTSYYMHWVRQSPGQGLEWMGIINPSGGSTSYAQKFQGRVTMTRDTSTSTVYMELSSLRSEDTAVYYCARDQAVTGTAYYYYYGMDVWGQGTTVTVSS VL: EIVLTQSPGTLSLSPGERATLSCRASQSVNSKYLAWYQQKPGQAPRLLIYGTSSRATGIPDSFSGSGSGTDFTLTISRLEPEDFAVYYCQQFGSSPLTFGGGTKVEIK
3.24

Continuing:
Provide Bmax value for the following binder: ABCB5-Ab101 (antibody, human IgG1, kappa, V domains shown, Fully human monoclonal IgG1 kappa) VH: QVQLVQSGAEVKKPGASVKVSCKASGYTFTSYYMHWVRQAPGQGLEWMGIINPSGGSTSYAQKFQGRVTMTRDTSTSTVYMELSSLRSEDTAVYYCARDQAVTGTAYYYYYGMDVWGQGTTVTVSS VL: EIVLTQSPGTLSLSPGERATLSCRASQSVNSNYLAWYQQKPGQAPRLLIYGTSSRATGIPDSFSGSGSGTDFTLTISRLEPEDFAVYYCQQFGSSPLTFGGGTKVEIKR
3.33
